Readings of Ki for the listed compounds
# target: A2A adenosine receptor (UniProt P29274)
# experimentalDetails: A2A radioligand binding assay (displacement of 3H-MSX-2)
# Parameters: species or system human
# recordedConditions: displacement of 2 nM 3H-MSX-2 from 15 ug A2A membrane, 23° C., 2 hours

Example entries and their recorded answers appear below.
{"structureSmilesString": "CCCn1c(=O)[nH]c2sc(C(=O)O)c(C)c2c1=O", "parameter": "Ki", "result": "569 nM"}
{"structureSmilesString": "CCn1c(=O)[nH]c2sc(-c3sccc3C)c(C)c2c1=O", "parameter": "Ki", "result": "110 nM"}
{"structureSmilesString": "CCn1c(=O)[nH]c2sc(-c3ccc(OC)nc3)c(C)c2c1=O", "parameter": "Ki", "result": "406 nM"}
{"structureSmilesString": "CCn1c(=O)c2c(-c3ccc(C)o3)csc2n(C)c1=O", "parameter": "Ki", "result": "896 nM"}
{"structureSmilesString": "CCn1c(=O)[nH]c2sc(-c3ccsc3)c(C)c2c1=O", "parameter": "Ki", "result": "559 nM"}
{"structureSmilesString": "Cc1c(-c2ncco2)sc2c1c(=O)n(CC(C)C)c(=O)n2C", "parameter": "Ki", "result": "347 nM"}
{"structureSmilesString": "Cc1csc2[nH]c(=O)n(C)c(=O)c12", "parameter": "Ki", "result": "648 nM"}
{"structureSmilesString": "Cc1c(-c2cocn2)sc2c1c(=O)n(CC(C)C)c(=O)n2C", "parameter": "Ki", "result": "165 nM"}

Report value: Ki, system: A2A adenosine receptor (UniProt P29274), compound: CCOC(=O)c1sc2[nH]c(=O)n(C)c(=O)c2c1C
715 nM

Fill in: Ki on A2A adenosine receptor (UniProt P29274), entry CCCn1c(=O)[nH]c2sc(C3=N[C@@H](C)CO3)c(C)c2c1=O
95 nM

// output Ki; input CCn1c(=O)[nH]c2sc(-c3ccco3)c(C)c2c1=O ; system A2A adenosine receptor (UniProt P29274)
105 nM

----------
# target: UniProtKB P29274
parameter: Ki (nM)
Quick note: give the figure in nM, leave out the unit.

As a guide, the following entries are already answered.
{"structureSmilesString": "CCn1c(=O)[nH]c2sc(C3=NCCO3)c(C)c2c1=O", "Ki (nM)": 152}
{"structureSmilesString": "Cc1c(-c2ccco2)sc2[nH]c(=O)n(CC3CC3)c(=O)c12", "Ki (nM)": 170}
{"structureSmilesString": "Cc1c(C2=NC[C@@H](C)O2)sc2[nH]c(=O)n(CC(C)C)c(=O)c12", "Ki (nM)": 239}
{"structureSmilesString": "C#CCn1c(=O)[nH]c2sc(C(=O)OCC)c(C)c2c1=O", "Ki (nM)": 300}
{"structureSmilesString": "CCn1c(=O)[nH]c2sc(C(=O)N[C@H](C)CO)c(C)c2c1=O", "Ki (nM)": 769}
{"structureSmilesString": "CCn1c(=O)[nH]c2scc(C)c2c1=O", "Ki (nM)": 397}
{"structureSmilesString": "CCn1c(=O)[nH]c2sc(-c3nc(Cc4ccccc4)no3)c(C)c2c1=O", "Ki (nM)": 805}
{"structureSmilesString": "CCn1c(=O)[nH]c2sc(C)c(C)c2c1=O", "Ki (nM)": 699}
{"structureSmilesString": "CCn1c(=O)[nH]c2sc(C3=N[C@@H](C)CO3)c(C)c2c1=O", "Ki (nM)": 93}

Continue with the next compound.
Return Ki (reported value) for this compound: Cc1c(-c2cccs2)sc2[nH]c(=O)n(C)c(=O)c12
150
